// provenance: the supplement of paper PMC12764529

# folding stability dG unfold per record follows
assay: folding stability dG unfold from chymotrypsin proteolysis; higher = more stable
Please reply with the bare figure in kcal/mol and do not write the unit itself.

{"Biopolymer Sequence": "SAGGSAGGSAMTVYVPIEEVGPDENGEYDDELIRERVREEYPDEPVEEVLVEGPEEAERVARSAGGSAGGSA [r18_72_JUSTAS]", "folding stability dG unfold (kcal/mol)": -0.134}
{"Biopolymer Sequence": "SAGGSAGGSAGGPVRIVMKPSDIEYLLEKFGVEPLEIEEVEEDYVVVTITPEALKEAGLGSAGGSAGGSAGG [r7_587_TrMRF]", "folding stability dG unfold (kcal/mol)": 0.737}
{"Biopolymer Sequence": "SYLPESVPYDLVELTVVAKGKSPEYLEKKIKEAFKDVKIEPFYDPEKKLVTFKIVFPNKETAEKFKELVSSA [r9_764_TrMRF]", "folding stability dG unfold (kcal/mol)": 2.28}

Would you mind telling me what folding stability dG unfold value was observed for SKPGKTIMIMITMDNIKEFLEELPLEPNMEVEIMFMNPNGKMRTLTIRNGEIDSIEPFPNFPDYWMIMIKSA [r9_849_TrROS] ?
2.92
